# System under test: Metabotropic glutamate receptor 8 (Rattus norvegicus)
# Method description: mGluR8 Gi/Go-coupled signaling modulation – cell-based, rat, thallium flux, HTS, primary screen (AID 488969)
# Setup conditions: HEK293 rat mGluR8, GIRK thallium flux, FluoZin2; at 10 µM; stronger effect = higher value; submaximal glutamate (EC20) added with thallium
Whole data set: some 110,000 compounds, median “z-score” near -0.1, cut for the highest 2% near 2. The full list was thinned out, with the highest values kept by preference.
Binning of z-score into classes: bucket A: < -0.08; bucket B: ≥ -0.08 and < 0.6; bucket C: ≥ 0.6

Examples with answers:
Compound	Label value
COC(=O)c1sccc1NC(=O)CSc1ccccc1NS(=O)(=O)c1ccc(F)cc1	bucket C
C=CCN1C(=O)C(CC(=O)Nc2ccccc2)SC1=Nc1c(C)n(C)n(-c2ccccc2)c1=O (stereo not given)	bucket C
COC(=O)c1sccc1NC(=O)CSc1ccccc1NS(=O)(=O)c1ccc(Br)cc1	bucket C
O=C(N/N=C1\CCCc2ccccc21)c1ccc([N+](=O)[O-])cc1	bucket C
O=C1Nc2ccccc2C12OCCCO2	bucket B

Pending compound:
Categorize the following entry: O=C(NC(=S)N1CCCc2ccccc21)c1ccc([N+](=O)[O-])cc1
bucket C

----------
Listing of recorded z-score by entry.
# System under test: Metabotropic glutamate receptor 8 (Rattus norvegicus)
# Method description: mGluR8 Gi/Go-coupled signaling modulation – cell-based, rat, thallium flux, HTS, primary screen (AID 488969)
# Setup conditions: HEK293 rat mGluR8, GIRK thallium flux, FluoZin2; at 10 µM; stronger effect = higher value; submaximal glutamate (EC20) added with thallium
Over roughly 110,000 compounds, “z-score” has its median near -0.1; the highest 2% begin near 2. The list comes from a sample in which the highest values are over-represented; it also holds close analogues and randomly drawn compounds.
When you answer, write just the number.

See these solved cases before continuing.
Molecule	z-score
O=C(NC(=S)Nc1nc2c(ccc3ccccc32)s1)c1cccs1	2.78
NS(=O)(=O)c1ccc(CCNC(=S)Nc2ccccc2)cc1	-0.217
CCCCn1c(=O)c(C(=O)c2ccccc2)nc2ccccc21	-0.617
O=C(NC(=S)Nc1nc(-c2ccccc2)cs1)c1cccs1	1.03
CCOc1ccc2cc(S(=O)(=O)n3ccnc3C)ccc2c1	0.917

// field: z-score; key: N#CC1(Cc2ccc(Cl)cc2)c2ccccc2C=CN1C(=O)c1ccccc1 (stereo unspecified) ; value = -0.14

For reference, reported z-score for CCCN(CCC)CCNC(=O)CS(=O)Cc1nc(-c2ccc(C)cc2)oc1C (stereo unspecified) stands at 1.19

Reported z-score for CCS(=O)(=O)n1nc(-c2ccccc2)nc1NCc1ccco1 was 2.2

Memo: COCCNC(=O)CS(=O)Cc1nc(-c2ccc(Cl)cc2)oc1C (stereo unspecified) , reported z-score: 0.00619

The molecule listed as CCCC12CN3CCN(CC(C3)/C1=N\NC(=O)c1ccccc1N)C2 shows z-score equal to -0.119

Lab book: z-score of CCOC(=O)C(C)Sc1nnc(Cc2cc(=O)[nH]c(=O)[nH]2)n1-c1ccc(OCC)cc1 (stereo unspecified) noted as 0.465

# z-score (molecule: COc1cccc(/C(O)=C2/C(=O)C(=O)N(Cc3ccco3)C2c2ccncc2)c1 (stereo unspecified) ) is -0.192

For record Cc1nc(NC(=S)NC(=O)c2cccs2)sc1C(=O)N(C)C the listed z-score is -0.329

Note to self: z-score recorded for COc1cccc(-c2nc(CS(=O)CC(=O)O)c(C)o2)c1 (stereo unspecified) was 0.0172

For N#C/C(=C\c1ccc(N2CCCC2)c([N+](=O)[O-])c1)c1nc2ccccc2[nH]1 the molecule record lists z-score as 0.221

Per the record, COc1ccccc1CNS(=O)(=O)c1c(C)[nH]c(=O)[nH]c1=O has z-score of 0.0871

----------
# System under test: Metabotropic glutamate receptor 8 (Rattus norvegicus)
# Method description: mGluR8 Gi/Go-coupled signaling modulation – cell-based, rat, thallium flux, HTS, primary screen (AID 488969)
# Setup conditions: HEK293 rat mGluR8, GIRK thallium flux, FluoZin2; at 10 µM; stronger effect = higher value; submaximal glutamate (EC20) added with thallium
The full ranking holds about 110,000 compounds; the median of “z-score” is about -0.1, and the highest 2% start at about 2. For the sample, the highest values were picked, then their nearest neighbours and some compounds at random.
Respond with True for z-score values of 0.2 and above, False for values below.

# example entries with known answers
Compound	Label value
Cn1cc(S(=O)(=O)CC(=O)Nc2ccc(Br)cc2)c2ccccc21	False
CCC(=O)c1ccc(N2CCCCCC2)c(F)c1	False
CC(C)(C)c1ccc(NC(=O)COC(=O)c2ccc([N+](=O)[O-])s2)cc1	True

Is reported z-score greater than or equal to 0.2 here: CC(=O)Nc1nnc(-c2ccc3c(c2)CCCC3)o1
False

Confirm if z-score reported for the compound O=C(Nc1nnc(-c2ccc3c(c2)CCCC3)o1)C1COc2ccccc2O1 (centres undefined) is 0.2 or above.
True

Does Fc1ccc2nc(Nc3nc4c(F)cccc4s3)sc2c1 have a reported z-score of at least 0.2?
True

Identify whether the reported z-score of the following compound is 0.2 or greater: O=C(COc1ccccc1)Nc1nnc(-c2ccc3c(c2)CCCC3)o1
True

Confirm if z-score reported for the compound O=C(COc1ccccc1F)N1c2ccccc2CCc2ccccc21 is 0.2 or above.
False

Does CCCC(=O)Nc1ccc(Cl)c(NC(=O)C(C)(C)C)c1 have a reported z-score of at least 0.2?
False

Can Cc1cc(N2CCCCC2)nc(NCc2ccccc2)n1 be said to have z-score at or above 0.2?
True

Test whether the compound O=C(COC(=O)c1ccc([N+](=O)[O-])s1)Nc1ccccc1 records z-score of 0.2 or higher.
False

Threshold query (z-score >= 0.2) on CCC(Sc1nc2ccccc2c(=O)[nH]1)C(=O)O (centres undefined)
True

Kindly determine if z-score recorded for O=C(NNS(=O)(=O)c1cccc(Cl)c1Cl)c1cccc(S(=O)(=O)N2CCOCC2)c1 is above or exactly 0.2.
False

# bool: z-score of CCc1cccc(CC)c1NC(=O)COC(=O)CCc1cc(OC)c(OC)c(OC)c1 >= 0.2
False

Could you please find out whether O=C(Nc1ccc(S(=O)(=O)Nc2ncccn2)cc1)c1ccc(Br)s1 has z-score that meets 0.2 or exceeds it?
True

Textbook exercise: given the entry CC(=O)c1ccc(N2CCCC2)c(F)c1 , state whether its z-score is greater than or equal to 0.2.
True

Hi, just wondering whether Cc1cc(C)n(C(=O)CNC(=O)C(c2ccccc2)c2ccccc2)n1 shows z-score of 0.2 or higher.
False

Is reported z-score greater than or equal to 0.2 here: COc1cc2c(C)nc3onc(-c4ccccc4)c3c2cc1OC
False

Does z-score meet or surpass 0.2 for O=C(Nc1nnc(-c2ccc3c(c2)CCCC3)o1)c1ccc(Cl)cc1Cl ?
True

----------
# System under test: Metabotropic glutamate receptor 8 (Rattus norvegicus) (UniProt P70579)
# Sequence (P70579 whole entry, looked up): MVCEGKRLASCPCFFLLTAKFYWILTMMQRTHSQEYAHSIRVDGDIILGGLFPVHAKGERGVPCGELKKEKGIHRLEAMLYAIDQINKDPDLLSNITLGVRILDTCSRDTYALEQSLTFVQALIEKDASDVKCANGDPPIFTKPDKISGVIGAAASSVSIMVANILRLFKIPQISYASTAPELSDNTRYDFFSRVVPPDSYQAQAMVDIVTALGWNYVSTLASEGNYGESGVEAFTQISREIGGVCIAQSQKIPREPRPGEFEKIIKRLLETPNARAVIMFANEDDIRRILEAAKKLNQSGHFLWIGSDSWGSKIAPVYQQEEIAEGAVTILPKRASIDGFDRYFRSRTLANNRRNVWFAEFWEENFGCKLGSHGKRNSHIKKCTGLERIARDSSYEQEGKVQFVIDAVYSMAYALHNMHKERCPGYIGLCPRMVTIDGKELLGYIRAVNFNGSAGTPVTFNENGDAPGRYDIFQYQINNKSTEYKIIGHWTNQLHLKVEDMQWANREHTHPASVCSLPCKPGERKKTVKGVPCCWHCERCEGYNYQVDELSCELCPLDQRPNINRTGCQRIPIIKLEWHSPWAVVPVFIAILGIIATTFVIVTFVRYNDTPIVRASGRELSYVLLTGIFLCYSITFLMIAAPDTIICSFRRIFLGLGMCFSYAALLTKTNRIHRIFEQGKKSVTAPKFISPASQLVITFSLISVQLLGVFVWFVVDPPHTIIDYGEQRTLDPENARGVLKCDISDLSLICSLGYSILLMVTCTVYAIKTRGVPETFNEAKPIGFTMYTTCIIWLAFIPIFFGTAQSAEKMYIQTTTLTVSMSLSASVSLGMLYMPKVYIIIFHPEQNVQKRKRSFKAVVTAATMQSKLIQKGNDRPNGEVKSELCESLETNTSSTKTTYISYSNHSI
# Method description: mGluR8 Gi/Go-coupled signaling modulation – cell-based, rat, thallium flux, HTS, primary screen (AID 488969)
# Setup conditions: HEK293 rat mGluR8, GIRK thallium flux, FluoZin2; at 10 µM; stronger effect = higher value; submaximal glutamate (EC20) added with thallium
Over roughly 110,000 compounds, “z-score” has its median near -0.1; the highest 2% begin near 2. The list comes from a sample in which the highest values are over-represented; it also holds close analogues and randomly drawn compounds.
Measurement name: z-score
Write the value as a bare number.

Sample answers from the record:
Cc1sc(NC(=S)NC(=O)C(C)(C)C)c(C(N)=O)c1C -0.0974
CCOc1ccc(Nc2ncnc(N)n2)cc1 4.23
Nc1ncnc(Nc2ccc(F)cc2)n1 0.0495

Per the records, this molecule ( CCC(=O)Nc1nnc(SCc2ccc(F)cc2)s1 ) has z-score equal to -0.00764

Item: CCCCCn1c(SCC(=O)OC)nc2c1c(=O)[nH]c(=O)n2C | z-score: 2.01

----------
# System under test: Metabotropic glutamate receptor 8 (Rattus norvegicus) (UniProt P70579)
# Method description: mGluR8 Gi/Go-coupled signaling modulation – cell-based, rat, thallium flux, HTS, primary screen (AID 488969)
# Setup conditions: HEK293 rat mGluR8, GIRK (G protein-gated inwardly rectifying potassium channel) thallium flux, FluoZin2; at 10 µM; stronger effect = higher value; submaximal glutamate (EC20) added with thallium
Over roughly 110,000 compounds, “z-score” has its median near -0.1; the highest 2% begin near 2. What follows is part of a selection rich in the highest values, with near analogues and random picks from the rest.
Attribute: z-score
Just the number, please, no unit after it.

Compound	System under test	z-score
Cc1cccc(NC(=S)NC(C)CCc2ccccc2)c1 (stereo unspecified)	Metabotropic glutamate receptor 8 (Rattus norvegicus) (UniProt P70579)	0.2
Cc1sc2ncnc(SCC(=O)N3CCCC3=O)c2c1C	Metabotropic glutamate receptor 8 (Rattus norvegicus) (UniProt P70579)	2.71
COCCNC(=O)c1ccc(C(=O)C(=O)c2ccccc2)cc1	Metabotropic glutamate receptor 8 (Rattus norvegicus) (UniProt P70579)	-0.189
Cc1cccc(NC(=S)NC(=O)CCc2ccccc2)c1	Metabotropic glutamate receptor 8 (Rattus norvegicus) (UniProt P70579)	2.74
Cc1sc2ncnc(SCC(=O)N3CCCC3)c2c1C	Metabotropic glutamate receptor 8 (Rattus norvegicus) (UniProt P70579)	0.342

Please turn your attention to the following entry.
// sample Cc1sc2ncnc(SCC(=O)NC3CC3)c2c1C , its z-score was 0.845
